Tested on: lambsquarters (Chenopodium album)
protocol_summary: Test B pre/postemergence
Format: in vivo
measurement_context: Postemergence, 500 g ai/ha; scale 0 to 100
Rule: condition met for Plant response rating, Lambsquarters not less than 80, condition not met for anything less.

{"compound": "CCOC(=O)C(Cl)c1nc(C2CC2)nc(N)c1Br (centres unmarked) [Compound 31]", "group_label": "condition not met"}
{"compound": "CCOC(=O)c1nc(C2CC2)nc(NCCOC)c1Br [Compound 39]", "group_label": "condition met"}
{"compound": "CCCCOC(=O)c1nc(C2CC2)nc(N)c1Br [Compound 16]", "group_label": "condition met"}
{"compound": "CCOC(=O)Cc1nc(C2CC2)nc(N=CN(C)C)c1Br [Compound 33]", "group_label": "condition not met"}
{"compound": "Nc1nc(C2CC2)nc(C=NO)c1Br [Compound 27]", "group_label": "condition met"}
{"compound": "CCOC(=O)c1nc(C2CC2)nc(NNC(C)=O)c1Br [Compound 126]", "group_label": "condition not met"}
{"compound": "CCOC(=O)C(OC(C)=O)c1nc(C2CC2)nc(N)c1Br (centres unmarked) [Compound 47]", "group_label": "condition met"}

* * *

Test system: pigweed (Amaranthus retroflexus)
protocol_summary: Test C pre/postemergence
Format: in vivo
measurement_context: Amaranthus retroflexus, pre-emergence, Preemergence, 62 g ai/ha; scale 0 to 100, 0 no effect, 100 complete control; read-out: Plant response rating, Pigweed
Source text: […]

{"molecule": "Nc1nc(C2CC2)nc(C(=O)OCc2ccccc2)c1Cl [Compound 78]", "pest or weed control at 62 g/ha (%)": 70}
{"molecule": "Nc1nc(C2CC2)nc(C(=O)[O-])c1Cl.[Na+] [Compound 77, monosodium salt]", "pest or weed control at 62 g/ha (%)": 65}
{"molecule": "COC(=O)c1nc(C(C)C)nc(N)c1Br [Compound 3]", "pest or weed control at 62 g/ha (%)": 50}
{"molecule": "COC(=O)c1nc(C2CC2)nc(N)c1Br [Compound 2]", "pest or weed control at 62 g/ha (%)": 95}

* * *

System: rice flatsedge (Cyperus iria)
protocol_summary: Test E flooded paddy water application
Assay type: in vivo
measurement_context: 125 g ai/ha; Flood; 21 days; scale 0 to 100 (0 no effect, 100 complete control)

{"compound_string": "CCOC(=O)c1nc(-c2ccc(Br)cc2)nc(N)c1Cl", "assay_system": "rice flatsedge (Cyperus iria)", "Flatsedge, Rice plant response rating": 100}
{"compound_string": "COC(=O)c1nc(-c2ccc(C)cc2)nc(N)c1Cl", "assay_system": "rice flatsedge (Cyperus iria)", "Flatsedge, Rice plant response rating": 60}
{"compound_string": "Nc1nc(-c2ccc(Cl)cc2)nc(C(=O)[O-])c1Cl.[Na+]", "assay_system": "rice flatsedge (Cyperus iria)", "Flatsedge, Rice plant response rating": 100}

* * *

Each entry below lists one item and its recorded Plant response rating, Corn value.
System: corn (Zea mays)
protocol_summary: Test B pre/postemergence
Assay type: in vivo
measurement_context: Preemergence, 125 g ai/ha; scale 0 to 100 (0 no effect, 100 complete control)

{"compound": "CCOC(=O)C(OC(C)=O)c1nc(C2CC2)nc(N)c1Br (centres unmarked) [Compound 47]", "Plant response rating, Corn": 0}
{"compound": "Nc1nc(-c2ccc(Br)cc2)nc(C(=O)O)c1Br [Compound 136]", "Plant response rating, Corn": 0}
{"compound": "COCc1nc(C2CC2)nc(N)c1Br [Compound 11]", "Plant response rating, Corn": 0}
{"compound": "Nc1nc(C2CC2)nc(C(=O)[O-])c1Br.[Na+] [Compound 113]", "Plant response rating, Corn": 20}
{"compound": "CCCOC(=O)c1nc(C2CC2)nc(N)c1Br [Compound 15]", "Plant response rating, Corn": 20}

* * *

System: barnyardgrass (Echinochloa crus-galli)
protocol_summary: Test A pre/postemergence
Type: in vivo
measurement_context: Echinochloa crus-galli, post-emergence, 240 h, Postemergence, 125 g ai/ha; 0 to 100 scale (0 no effect, 100 complete control); read-out: Plant response rating, Barnyardgrass

{"compound": "CCOC(=O)c1nc(-c2ccc3c(c2)OCO3)nc(N)c1Cl [Compound 74]", "pest or weed control at 125 g/ha, %": 30}
{"compound": "CCOC(=O)c1nc(C(C)C)nc(N)c1Cl [Compound 108]", "pest or weed control at 125 g/ha, %": 0}
{"compound": "COC(=O)c1nc(-c2ccc(Br)cc2)nc(N)c1Cl [Compound 96]", "pest or weed control at 125 g/ha, %": 20}
{"compound": "CCOC(=O)c1nc(-c2ccc(Cl)cc2)nc(N)c1Cl [Compound 64]", "pest or weed control at 125 g/ha, %": 25}
{"compound": "Nc1nc(-c2ccc(Br)cc2)nc(C(=O)O)c1Cl [Compound 95]", "pest or weed control at 125 g/ha, %": 75}
{"compound": "COC(=O)c1nc(-c2ccc(Cl)cc2)nc(N)c1Cl [Compound 58]", "pest or weed control at 125 g/ha, %": 5}

* * *

Reported values of Junglerice plant response rating for individual entries
Test system: junglerice (Echinochloa colona)
protocol_summary: Test E flooded paddy water application
Assay type: in vivo
measurement_context: 125 g ai/ha; Flood; 21 days; scale 0 to 100 (0 no effect, 100 complete control)

{"compound_string": "Nc1nc(-c2ccc(Cl)cc2)nc(C(=O)O)c1Cl", "assay_system": "junglerice (Echinochloa colona)", "Junglerice plant response rating": 40}
{"compound_string": "CCOC(=O)c1nc(-c2ccc(Cl)cc2Cl)nc(N)c1Br", "assay_system": "junglerice (Echinochloa colona)", "Junglerice plant response rating": 30}
{"compound_string": "CCOC(=O)c1nc(-c2ccc(Cl)cc2F)nc(N)c1Br", "assay_system": "junglerice (Echinochloa colona)", "Junglerice plant response rating": 0}
{"compound_string": "CCOC(=O)c1nc(-c2ccc(C)c(C)c2)nc(N)c1Cl", "assay_system": "junglerice (Echinochloa colona)", "Junglerice plant response rating": 0}
{"compound_string": "CCOC(=O)c1nc(-c2ccc(Cl)cc2)nc(N)c1Cl", "assay_system": "junglerice (Echinochloa colona)", "Junglerice plant response rating": 0}
{"compound_string": "Nc1nc(-c2ccc(Br)cc2)nc(C(=O)O)c1Cl", "assay_system": "junglerice (Echinochloa colona)", "Junglerice plant response rating": 0}
{"compound_string": "CCOC(=O)c1nc(-c2ccc(F)cc2)nc(N)c1Br", "assay_system": "junglerice (Echinochloa colona)", "Junglerice plant response rating": 0}
{"compound_string": "Nc1nc(-c2ccc(Cl)cc2)nc(C(=O)OCc2ccccc2)c1Cl", "assay_system": "junglerice (Echinochloa colona)", "Junglerice plant response rating": 65}
{"compound_string": "COC(=O)c1nc(-c2ccc(I)cc2)nc(N)c1Br", "assay_system": "junglerice (Echinochloa colona)", "Junglerice plant response rating": 0}
{"compound_string": "CCOC(=O)c1nc(-c2ccc(OC)cc2)nc(N)c1Cl", "assay_system": "junglerice (Echinochloa colona)", "Junglerice plant response rating": 0}
{"compound_string": "CCOC(=O)c1nc(-c2ccc(C)cc2)nc(N)c1Br", "assay_system": "junglerice (Echinochloa colona)", "Junglerice plant response rating": 20}

* * *

// values below are reported Plant response rating, Ragweed
Test system: common ragweed (Ambrosia elatior)
protocol_summary: Test C pre/postemergence
Assay type: in vivo
measurement_context: Preemergence, 62 g ai/ha; scale 0 to 100, 0 no effect, 100 complete control
From the text: […]

{"compound_string": "CCCOC(=O)c1nc(C2CC2)nc(N)c1Br", "assay_system": "common ragweed (Ambrosia elatior)", "Plant response rating, Ragweed": 90}
{"compound_string": "CN(C)N=Cc1nc(C2CC2)nc(N)c1Br", "assay_system": "common ragweed (Ambrosia elatior)", "Plant response rating, Ragweed": 70}
{"compound_string": "COC(=O)c1nc(C2CC2)nc(N=CN(C)C)c1Br", "assay_system": "common ragweed (Ambrosia elatior)", "Plant response rating, Ragweed": 70}
{"compound_string": "Nc1nc(-c2ccc(Cl)cc2)nc(C(=O)[O-])c1Cl.[Na+]", "assay_system": "common ragweed (Ambrosia elatior)", "Plant response rating, Ragweed": 90}

* * *

pest or weed control at 125 g/ha values by entry
System: velvetleaf (Abutilon theophrasti)
protocol_summary: Test A pre/postemergence
Assay type: in vivo
measurement_context: Abutilon theophrasti, post-emergence, 240 h, Postemergence, 125 g ai/ha; 0 to 100 scale (0 no effect, 100 complete control); read-out: Plant response rating, Velvetleaf

{"molecule": "Nc1nc(C2CC2)nc(C(=O)[O-])c1Br.[Na+] [Compound 113, monosodium salt]", "units": "%", "pest or weed control at 125 g/ha": 80}
{"molecule": "Nc1nc(-c2ccc(Br)cc2)nc(C(=O)O)c1Cl", "units": "%", "pest or weed control at 125 g/ha": 90}
{"molecule": "CCOC(=O)c1nc(-c2ccc(Br)cc2)nc(N)c1Cl", "units": "%", "pest or weed control at 125 g/ha": 90}
{"molecule": "CNc1nc(C2CC2)nc(C(=O)OC)c1Cl", "units": "%", "pest or weed control at 125 g/ha": 90}
{"molecule": "CCOC(=O)c1nc(-c2ccc3c(c2)OCO3)nc(N)c1Br", "units": "%", "pest or weed control at 125 g/ha": 60}
{"molecule": "Nc1nc(-c2ccc(Cl)cc2)nc(C(=O)O)c1Cl", "units": "%", "pest or weed control at 125 g/ha": 95}
{"molecule": "NC(=O)c1nc(C2CC2)nc(N)c1Cl", "units": "%", "pest or weed control at 125 g/ha": 25}
